- SYSTEM_UNDER_TEST: P2Y purinoceptor 14 (Homo sapiens)
- MEASUREMENT_CONDITIONS: HEK293, filed as antagonist, dose 100.0 nM
- Description: Antagonist activity at P2Y14R (unknown origin) stably expressed in HEK293 cells assessed as inhibition of forskolin-induced cAMP production at 100 nM by cAMP-Glo assay relative to control
Give measured inhibition for each item. Keep answers brief.
One number for each entry, in %.

# MOLECULE, UNIT_TAG, inhibition
data = [
    ("Cc1ccc(C(=O)Nc2cc(C(=O)O)sc2Oc2ccc(F)nc2)cc1", "%", 83.4),
]

Fill in inhibition for each of the 2 molecules listed.
1. Cc1ccc(C(=O)Nc2cc(C(=O)O)sc2Oc2ccc(C(C)(C)C)cc2)cc1
2. Cc1ccc(Oc2sc(C(=O)O)cc2NC(=O)c2ccc(C)cc2)cc1

# output
54.4
97.4

These data points were gathered from ChEMBL document CHEMBL5523735.
